- ASSAY: Drug concentration in male ICR mouse plasma at 10 mg/kg, ip measured after 0.5 hrs by LC-MS/MS analysis
- Assay type: ADME, organism-based

# SMILES ENTRY, concentration at 0.5 h [ng/mL]
rows = [
    ("COc1cccc(-c2cc(N3CCCc4ccccc4C3)nc(N)n2)c1", 221),
]

====

- ASSAY: Half-life in male ICR mouse at 10 mg/kg, ip measured after 24 hrs by LC-MS/MS analysis
- Assay type: ADME, organism-based
- RUN CONDITIONS: in vivo

# SMILES ENTRY, half-life
rows = [
    ("COc1cccc(-c2cc(N3CCCc4ccccc4C3)nc(N)n2)c1", "56.4 min"),
]
